Tested on: DLD1
assay.remarks: TCF/Wnt firefly luciferase reporter signal relative to plate median (fraction of plate median); higher = higher Wnt reporter signal
condition: 5 µM; treatment time 24 h; reporter: 7TFP
The reader will find reported TCF/Wnt firefly luciferase reporter signal values listed item by item below.
parameter: TCF/Wnt firefly luciferase reporter signal

[
  {
    "compound": "CN(C)C(=O)C(CCN1CCC(O)(c2ccc(Cl)cc2)CC1)(c1ccccc1)c1ccccc1",
    "system": "DLD1",
    "measurement": 0.982
  },
  {
    "compound": "NC[C@H]1O[C@H](O[C@H]2[C@H](O)[C@@H](O[C@H]3O[C@H](CO)[C@@H](O)[C@H](N)[C@H]3O)[C@H](N)C[C@@H]2N)[C@H](N)C[C@@H]1O",
    "system": "DLD1",
    "measurement": 0.992
  },
  {
    "compound": "CCCCC/C=C/CCC(=O)N[C@H]1[C@H](Oc2c3cc4cc2Oc2ccc(cc2Cl)[C@@H](O[C@@H]2O[C@H](CO)[C@@H](O)[C@H](O)[C@H]2NC(C)=O)[C@@H]2NC(=O)[C@H](NC(=O)[C@@H]4NC(=O)[C@H]4NC(=O)C(Cc5ccc(c(Cl)c5)O3)NC(=O)[C@H](N)c3ccc(O)c(c3)Oc3cc(O)cc4c3)c3ccc(O)c(c3)-c3c(OC4O[C@H](CO)[C@@H](O)[C@H](O)[C@@H]4O)cc(O)cc3[C@@H](C(=O)O)NC2=O)O[C@H](CO)[C@@H](O)[C@@H]1O (some centres undefined) [TEICOPLANIN [A(2-1) shown]]",
    "system": "DLD1",
    "measurement": 0.971
  },
  {
    "compound": "NCCS(=O)(=O)O",
    "system": "DLD1",
    "measurement": 0.974
  },
  {
    "compound": "Cc1nc2ccccn2c(=O)c1CCN1CCC(C(=O)c2ccc(F)cc2)CC1",
    "system": "DLD1",
    "measurement": 1.01
  },
  {
    "compound": "CN1CC(=O)N2[C@H](c3ccc4c(c3)OCO4)c3[nH]c4ccccc4c3C[C@@H]2C1=O",
    "system": "DLD1",
    "measurement": 0.973
  },
  {
    "compound": "CON",
    "system": "DLD1",
    "measurement": 0.982
  },
  {
    "compound": "Nc1ccc(C(=O)NCC(=O)O)cc1",
    "system": "DLD1",
    "measurement": 0.998
  },
  {
    "compound": "COc1ccc(C(=O)CC(=O)O)c2c1C=CC(C)(C)O2",
    "system": "DLD1",
    "measurement": 0.991
  }
]

* * *

Test system: DLD1
assay.remarks: cell viability (CellTiter-Glo) relative to plate median (fraction of plate median); higher = more viable cells
condition: 10 µM; treatment time 24 h; reporter: TCF4/Wnt

[
  {
    "substance.smiles": "N#CC1(c2ccc(NC(=O)c3cccnc3NCc3ccncc3)cc2)CCCC1",
    "cell viability": 1.02
  },
  {
    "substance.smiles": "CNC(=O)c1cc(COc2nnc(Nc3ccc(Cl)cc3)c3ccoc23)ccn1",
    "cell viability": 0.987
  },
  {
    "substance.smiles": "Nc1nccc(Oc2ccc(NC(=O)c3c[nH]cc(-c4ccc(F)cc4)c3=O)cc2F)c1Cl",
    "cell viability": 1.01
  },
  {
    "substance.smiles": "Cn1cc(-c2ccc3nnc(C(F)(F)c4ccc5ncccc5c4)n3n2)cn1",
    "cell viability": 0.972
  },
  {
    "substance.smiles": "Nc1nc(N)c2nc(-c3cccc(O)c3)c(-c3cccc(O)c3)nc2n1",
    "cell viability": 1.02
  },
  {
    "substance.smiles": "O=c1cc(-c2cccc3c2Sc2ccccc2S3)oc(N2CCOCC2)c1",
    "cell viability": 0.999
  }
]
